FYI, the data here is from patent US20260092093A1.

Listing of entries alongside the reported Kd.
Test Target: T1, hIL-18Rα ECD-Fc fusion protein (human, UniProt Q13478 22-329)
T1 construct: extracellular domain; captured on Protein A sensor
T1 sequence (looked up): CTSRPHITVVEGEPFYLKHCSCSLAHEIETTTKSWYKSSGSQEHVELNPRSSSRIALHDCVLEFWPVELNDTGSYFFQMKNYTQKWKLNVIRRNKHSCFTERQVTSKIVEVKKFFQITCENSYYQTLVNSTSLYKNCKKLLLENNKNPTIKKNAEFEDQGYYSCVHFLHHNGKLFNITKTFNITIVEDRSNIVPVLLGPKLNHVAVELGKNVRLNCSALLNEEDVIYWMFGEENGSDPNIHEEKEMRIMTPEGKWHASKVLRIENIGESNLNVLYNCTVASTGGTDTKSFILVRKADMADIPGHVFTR
Test Protocol: BLI (Octet RED96), hIL-18Rα ECD-Fc on Protein A sensor
Supply the numeric figure in nM, leaving out any unit text.

Entry under test: IL-18 variant polypeptide M40 (ligand) YFDKLKSKLSVIRNLNDQVLFIDQGNRPLFEDMTDSDCRDNAPRTIFIISMYKPSSWRGMAVTISVKCEKISTLSCENKIISFKEMNPPDWIKDTKSDIIFFQRSVPGHDNKMQFESSSYEGYFLACEKERDLFKLILKKEDELGDRSIMFTVQNED . Its Kd was 32.6

Entry under test: IL-18 variant polypeptide M21 (ligand) YFPKLRSKLSVIRNLNDQVLFIDQGNRPLFEDMTDSDCRDNAPRTIFIISMYKSSSTRGMAVTISVKCEKISTLSCENKIISFKEMNPPDGIKDTKSDIIFFQSSVPGHDNKMQFESSSYEGYFLACEKERDLFKLILKKEDELGDRSIMFTVQNED . Its Kd was 64.9

Entry under test: IL-18 variant polypeptide M7 (ligand) YFPKLRSKLSVIRNLNDQVLFIDQGNRPLFEDMTDSDCRDNAPRTIFIISMYKHSTARGMAVTISVKCEKISTLSCENKIISFKEMNPPDAIKDTKSDIIFFQRSVPGHDNKMQFESSSYEGYFLACEKERDLFKLILKKEDELGDRSIMFTVQNED . Its Kd was 11.9
